Data provenance is BigSolDB 2.1.

- condition_notes: in ethylene glycol, 293.15 K
property_label: solubility (mole fraction)
Please respond with just the number, no unit label.

Output measured solubility (mole fraction) for this item: O=C(OCCO)c1ccc(C(=O)OCCO)cc1
0.000391
